Target: O-acyltransferase (Oryctolagus cuniculus, UniProt G1SFD9)
Sequence (G1SFD9 1-524): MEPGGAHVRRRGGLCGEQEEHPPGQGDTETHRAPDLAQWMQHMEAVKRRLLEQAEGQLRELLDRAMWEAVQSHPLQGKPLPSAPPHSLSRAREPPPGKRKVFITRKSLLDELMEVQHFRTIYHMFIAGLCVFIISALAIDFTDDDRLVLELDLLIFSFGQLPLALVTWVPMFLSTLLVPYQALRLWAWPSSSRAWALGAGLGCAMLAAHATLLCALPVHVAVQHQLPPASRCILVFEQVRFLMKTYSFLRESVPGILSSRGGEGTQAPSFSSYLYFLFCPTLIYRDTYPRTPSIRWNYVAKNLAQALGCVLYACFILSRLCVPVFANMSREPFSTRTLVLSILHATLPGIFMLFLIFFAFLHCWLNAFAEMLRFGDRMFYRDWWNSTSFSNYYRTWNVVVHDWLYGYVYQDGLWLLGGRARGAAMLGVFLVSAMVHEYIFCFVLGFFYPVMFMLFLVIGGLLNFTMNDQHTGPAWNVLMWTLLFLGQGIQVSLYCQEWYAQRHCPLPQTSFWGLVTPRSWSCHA
Assay: In vitro inhibition of acyl coenzyme A:cholesterol acyltransferase, in intestinal microsomes isolated from cholesterol-fed rabbits
Parameters: species or system Intestine
pIC50: −log10 of the molar value.
readout-name: pIC50

Would you please look over these solved cases?
- molecular-string: "CCCCCCCC/C=C/CCCCCCC(C)(C)C(=O)Nc1c(OC)cc(OC)cc1OC"
  observed: 7.36
- molecular-string: "CCCCCCCCCCC(C)(C)C(=O)Nc1c(CC)cccc1CC"
  observed: 6.41
- molecular-string: "CCCCCCCC/C=C/CCCCCCCC(=O)Nc1ccccc1-c1ccccc1"
  observed: 6.04

[1] CCCCCCCCCCC(C)(C)C(=O)Nc1c(OC)cc(OC)cc1OCC(=O)OC
[2] CCCCCCCC/C=C/CCCCCCCC(=O)Nc1c(C)cccc1C(C)C
[3] CCCCCCCC/C=C/CCCCCCCC(=O)Nc1cc(Cl)c(OC)cc1OC
Please rank these compounds by pIC50 in descending order. I would appreciate it if you listed the labels in the requested order.
2, 3, 1

[a] CCCCCCCCCCC(CC)(CC)C(=O)Nc1c(OC)cc(OC)cc1OC
[b] CCCCCCCCCCCCCCC1(C(=O)Nc2c(OC)cc(OC)cc2OC)CC1
Choose between a and b : whose measured pIC50 value is numerically larger? Answer by stating the label of the chosen item.
b
(b: 7.31, a: 7.01)

[1] CCCCCCCC/C=C/CCCCCCCC(=O)Nc1ccccc1Cl
[2] CCCCCCCC/C=C/CCCCCCCC(=O)Nc1cc(C(=O)OC)c(C)cc1C
Which gives the smaller pIC50 number: 1 or 2 ? Answer by stating the label of the chosen item.
1
